Just for reference, ChEMBL document CHEMBL1201862 is where these values come from.

system: UO-31; experiment: NCI tumour cell line growth inhibition, 48 h
The source made the active and inactive calls. No stated cut-off is given here; in the data, active = GI50 up to about 1.1 µM and inactive = higher.
metric: GI50

Worked set:
{"compound": "COc1cc(C[C@@]2(C)[C@@H]3CCC[C@H](CO)[C@@]3(C)CC[C@@H]2C)c(Cl)c(OC)c1", "GI50": "16.6 µM (inactive)"}
{"compound": "Nc1nc(N)c(C2=CCNCC2)c(=O)[nH]1", "GI50": "> 100 µM (inactive)"}
{"compound": "Cc1cc(C)nc(NC(=S)Nc2ccc(Cl)cc2)c1", "GI50": "> 100 µM (inactive)"}
{"compound": "CC(C)=CCC/C(C)=C/Cc1c(O)c(C)cc2c1[nH]c1cc(O)ccc12", "GI50": "> 25 µM (inactive)"}

Continue with the next compound.
Entry O=C(/C=C/c1ccc(O)c(O)c1)OC1C[C@@](O)(C(=O)O)C[C@@H](O)[C@H]1OC(=O)/C=C/c1ccc(O)c(O)c1 (stereo not given in full) , GI50 reported as > 100 µM (inactive)
